B1: REST corepressor 3, residues 87 to 134; numbered along this chain, Q9P2K3 (parent)
chain: DEWTVEDKVLFEQAFSFHGKSFHRIQQMLPDKTIASLVKYYYSWKKTR

- Variants of: B1
- protocol-text: abundance fitness (aPCA) (normalised: wild type 0, dead -1); higher = more abundant; growth selection in yeast, the domain comes from the species named
- conditions-used: Homo sapiens
quantity: abundance fitness
Lab note: jot the number down without any unit.

Challenge: Tell me measured abundance fitness for DEWTVEDKVLFEQYFSFHGKSFHRIQQMLPDKTIASLVKYYYSWKKTR [A14Y] please.
Response given: -0.578

Challenge: Tell me measured abundance fitness for DEWTVEDKYLFEQAFSFHGKSFHRIQQMLPDKTIASLVKYYYSWKKTR [V9Y] please.
Response given: -0.581

Challenge: Tell me measured abundance fitness for DEWTVDDKVLFEQAFSFHGKSFHRIQQMLPDKTIASLVKYYYSWKKTR [E6D] please.
Response given: -0.466

Challenge: Tell me measured abundance fitness for DEWTVEDKVLFEQAFSFHGKSFHRIQQMLPDKTIASLVKYIYSWKKTR [Y41I] please.
Response given: -0.599

Challenge: Tell me measured abundance fitness for DEWTVEDKVLFEQAFSFHGKSFHRIQQMLKDKTIASLVKYYYSWKKTR [P30K] please.
Response given: -0.177

Challenge: Tell me measured abundance fitness for DEWTVEDKVLFEQAFSFHGKSFHRIQQMLPDKTIAMLVKYYYSWKKTR [S36M] please.
Response given: -0.288

Challenge: Tell me measured abundance fitness for DEWTVEDKVLFEQAFSFHGKSFHRIQQMLPDKTIASLVKYYYSWKKTL [R48L] please.
Response given: 0.326

Challenge: Tell me measured abundance fitness for DEWTVEDKVLFEQAFSPHGKSFHRIQQMLPDKTIASLVKYYYSWKKTR [F17P] please.
Response given: -0.537

Challenge: Tell me measured abundance fitness for DEWTVEDKNLFEQAFSFHGKSFHRIQQMLPDKTIASLVKYYYSWKKTR [V9N] please.
Response given: 0.166

Challenge: Tell me measured abundance fitness for DEWTVEDKVLFEQAFSFHGKSFHRIQQMLEDKTIASLVKYYYSWKKTR [P30E] please.
Response given: -0.563

Challenge: Tell me measured abundance fitness for DEWTVEDKDLFEQAFSFHGKSFHRIQQMLPDKTIASLVKYYYSWKKTR [V9D] please.
Response given: -0.258

Challenge: Tell me measured abundance fitness for DEWTVEDKVLFEQAFSFHGKSFHRIQQMLWDKTIASLVKYYYSWKKTR [P30W] please.
Response given: 0.322

Challenge: Tell me measured abundance fitness for DEWTVEDKVLFEQAFSFHGTSFHRIQQMLPDKTIASLVKYYYSWKKTR [K20T] please.
Response given: -0.399

Challenge: Tell me measured abundance fitness for DEFTVEDKVLFEQAFSFHGKSFHRIQQMLPDKTIASLVKYYYSWKKTR [W3F] please.
Response given: -0.264

Challenge: Tell me measured abundance fitness for DEWTVEDKVLFEQAFSFHGKSFHRIQQMLPDKTIASLVKYYYSWKKSR [T47S] please.
Response given: -0.463

Challenge: Tell me measured abundance fitness for DQWTVEDKVLFEQAFSFHGKSFHRIQQMLPDKTIASLVKYYYSWKKTR [E2Q] please.
Response given: -0.486

Challenge: Tell me measured abundance fitness for DEWTVEDKVLFEQAFSFHGKHFHRIQQMLPDKTIASLVKYYYSWKKTR [S21H] please.
Response given: -0.185

Challenge: Tell me measured abundance fitness for DEWTVEDKVLFEQAFSFHGKSFHRIQQMLPDKTIASLVKYYYSWKPTR [K46P] please.
Response given: -0.782

Challenge: Tell me measured abundance fitness for DEWTVEDKVLFEQAFSFHGKSFHRIQQMLPDKTIASLVKYYYNWKKTR [S43N] please.
Response given: -0.172

Challenge: Tell me measured abundance fitness for DEWTVEDKVLFEQAFSFHGKSFHRIQQMLPDKTIASLVKYYYSWKETR [K46E] please.
Response given: -0.575

Challenge: Tell me measured abundance fitness for DEWTVEDKVLFEQAFSFHGKSFHRIQQMLPDKTIASLKKYYYSWKKTR [V38K] please.
Response given: 0.393

Challenge: Tell me measured abundance fitness for DEWTVEDPVLFEQAFSFHGKSFHRIQQMLPDKTIASLVKYYYSWKKTR [K8P] please.
Response given: -0.763

Challenge: Tell me measured abundance fitness for DEWTVEDKVLFEQAWSFHGKSFHRIQQMLPDKTIASLVKYYYSWKKTR [F15W] please.
Response given: -0.637

Challenge: Tell me measured abundance fitness for DEWTFEDKVLFEQAFSFHGKSFHRIQQMLPDKTIASLVKYYYSWKKTR [V5F] please.
Response given: -0.222

Challenge: Tell me measured abundance fitness for DEWTVEDKVLFEQAFSFHGKSFHRIQQMLPDKTIASLVKYYYSWKKWR [T47W] please.
Response given: -0.542

Challenge: Tell me measured abundance fitness for DEWTVEDKVLFEQAFSFHGNSFHRIQQMLPDKTIASLVKYYYSWKKTR [K20N] please.
Response given: -0.306

Challenge: Tell me measured abundance fitness for DEWTVEDKVLFEQAFSFHGKSFHRIQQMLPDKTLASLVKYYYSWKKTR [I34L] please.
Response given: -0.419

Challenge: Tell me measured abundance fitness for DEWTVEDKVLFEQAFSFHGKEFHRIQQMLPDKTIASLVKYYYSWKKTR [S21E] please.
Response given: 0.261

Challenge: Tell me measured abundance fitness for DEWTVEDKVLFEQAFSFHGKSFHRIQQMLPDKTIASDVKYYYSWKKTR [L37D] please.
Response given: -0.465

Challenge: Tell me measured abundance fitness for DEWTVEDIVLFEQAFSFHGKSFHRIQQMLPDKTIASLVKYYYSWKKTR [K8I] please.
Response given: -0.388

Challenge: Tell me measured abundance fitness for DEWTVEDKVLFEQAFSFHGKSFHRIQQMLPDKTIASLVKYYYSWKTTR [K46T] please.
Response given: -0.756

Challenge: Tell me measured abundance fitness for DEWTVEDKVLFEQAFSFHGKSRHRIQQMLPDKTIASLVKYYYSWKKTR [F22R] please.
Response given: -1.07

Challenge: Tell me measured abundance fitness for DEWTVEDKVLFEQAFSFHGKSFHRIQQMLPDMTIASLVKYYYSWKKTR [K32M] please.
Response given: -0.799

Challenge: Tell me measured abundance fitness for DEWTVLDKVLFEQAFSFHGKSFHRIQQMLPDKTIASLVKYYYSWKKTR [E6L] please.
Response given: -0.614

Challenge: Tell me measured abundance fitness for DEWTVEDKVLFEQAPSFHGKSFHRIQQMLPDKTIASLVKYYYSWKKTR [F15P] please.
Response given: -0.881

Challenge: Tell me measured abundance fitness for DEWTVEDKVLFEQAFCFHGKSFHRIQQMLPDKTIASLVKYYYSWKKTR [S16C] please.
Response given: -0.607

Challenge: Tell me measured abundance fitness for DYWTVEDKVLFEQAFSFHGKSFHRIQQMLPDKTIASLVKYYYSWKKTR [E2Y] please.
Response given: -0.208

Challenge: Tell me measured abundance fitness for DEWTVEDKVLFEQAFSFHGSSFHRIQQMLPDKTIASLVKYYYSWKKTR [K20S] please.
Response given: -0.393

Challenge: Tell me measured abundance fitness for DEWTVEDKVLFEQAFSFHGKSFHRIQQMLPDKTIASLVTYYYSWKKTR [K39T] please.
Response given: -0.422

Challenge: Tell me measured abundance fitness for DEWTVEDKVLFEQAFSFHGKSFHRIQQMLPDKTIASLVKYVYSWKKTR [Y41V] please.
Response given: -0.657

Challenge: Tell me measured abundance fitness for DEWTREDKVLFEQAFSFHGKSFHRIQQMLPDKTIASLVKYYYSWKKTR [V5R] please.
Response given: -0.163

Challenge: Tell me measured abundance fitness for DEWTVEDKVLFEQAFSFHGPSFHRIQQMLPDKTIASLVKYYYSWKKTR [K20P] please.
Response given: -0.704

Challenge: Tell me measured abundance fitness for DEWTVEDKVLFEQAFSFHGKSFHRIQQMLPDKAIASLVKYYYSWKKTR [T33A] please.
Response given: -0.55

Challenge: Tell me measured abundance fitness for DEWTVEDKVLFEQAFSFHGKSFHRIQQMLPDKTIASLVKYYYSWKVTR [K46V] please.
Response given: -0.399

Challenge: Tell me measured abundance fitness for DEWTVEDKVLFEQAFSFHGKSFHRIKQMLPDKTIASLVKYYYSWKKTR [Q26K] please.
Response given: 0.249

Challenge: Tell me measured abundance fitness for DEWTVEDKVLFEQAFSFHGKSFHRIQQMLPDKTIASLVSYYYSWKKTR [K39S] please.
Response given: -0.168

These entries and their values trace back to the Human Domainome abundance scans (Beltran et al. 2025).
